Test system: LEGO organoid PT (PTEN-/-; TP53-/-)
assay_name: bioluminescence (viable cell) signal fold change after vs before treatment, normalised to DMSO (ratio); higher = more tumour cell growth / less inhibition
experimental_conditions: 10 µM; treatment time 6 days
Please map values of bioluminescence to classes as shown: LOW = under 0.8, MEDIUM = from 0.8 up to 1, HIGH = 1 and over

[[record]]
molecule = "CS(=O)(=O)O.Cc1ccc(NC(=O)c2ccc(CN3CCN(C)CC3)cc2)cc1Nc1nccc(-c2cccnc2)n1 [Imatinib Mesylate]"
class_name = "LOW"

[[record]]
molecule = "CS(=O)(=O)OCCCCOS(C)(=O)=O [Busulfan]"
class_name = "HIGH"

[[record]]
molecule = "CS(=O)(=O)c1cccc(C[C@H](NC(=O)c2c(Cl)cc3c(c2Cl)CCN(C(=O)c2ccc4ccoc4c2)C3)C(=O)O)c1 [Lifitegrast]"
class_name = "HIGH"

[[record]]
molecule = "CN(C)CCc1c[nH]c2ccc(Cn3cncn3)cc12.O=C(O)c1ccccc1 [Rizatriptan benzoate]"
class_name = "MEDIUM"

[[record]]
molecule = "CN(C)CCC=C1c2ccccc2COc2ccccc21.Cl [Doxepin hydrochloride]"
class_name = "HIGH"

[[record]]
molecule = "CC(C)Nc1cccnc1N1CCN(C(=O)c2cc3cc(NS(C)(=O)=O)ccc3[nH]2)CC1.CS(=O)(=O)O [Delavirdine mesylate]"
class_name = "MEDIUM"

[[record]]
molecule = "C[C@@H](O[C@H]1OCCN(Cc2nc(=O)[nH][nH]2)[C@H]1c1ccc(F)cc1)c1cc(C(F)(F)F)cc(C(F)(F)F)c1 [Aprepitant]"
class_name = "MEDIUM"

[[record]]
molecule = "O=c1[nH]cnc2c1ncn2[C@H]1CC[C@@H](CO)O1 [Didanosine]"
class_name = "MEDIUM"

[[record]]
molecule = "CCCCCOC(=O)Nc1nc(=O)n([C@@H]2O[C@H](C)[C@@H](O)[C@H]2O)cc1F [Capecitabine]"
class_name = "HIGH"

[[record]]
molecule = "CCCN(CCc1cccs1)[C@H]1CCc2c(O)cccc2C1 [Rotigotine]"
class_name = "MEDIUM"

[[record]]
molecule = "C[C@@H](c1ncncc1F)[C@](O)(Cn1cncn1)c1ccc(F)cc1F [Voriconazole]"
class_name = "LOW"

[[record]]
molecule = "OCCN1CCN(CCCN2c3ccccc3Sc3ccc(Cl)cc32)CC1 [Perphenazine]"
class_name = "LOW"

[[record]]
molecule = "CN1C(=O)OC(C)(C)C1=O [Trimethadione]"
class_name = "LOW"

[[record]]
molecule = "COC(=O)N[C@H](C(=O)N[C@@H](Cc1ccccc1)[C@@H](O)CN(Cc1ccc(-c2ccccn2)cc1)NC(=O)[C@@H](NC(=O)OC)C(C)(C)C)C(C)(C)C.O=S(=O)(O)O [Atazanavir sulfate]"
class_name = "HIGH"

[[record]]
molecule = "CCCC(CCC)C(=O)O.CCCC(CCC)C(=O)[O-].[Na+] [Divalproex Sodium]"
class_name = "LOW"

